# Test system: Cabbage Looper [Trichoplusia ni (Hubner)]
# ASSAY_NAME: Cabbage looper insecticidal test
# Format: in vivo
# APPLIED_CONDITIONS: second-instar larvae, percent in solution; 3-5 days
REPORTED_ENDPOINT: LC50, CL

// query What LC50, CL appears in the records for this compound with Cabbage Looper [Trichoplusia ni (Hubner)]? CC(C)C(=Nc1ccc(Cl)c(C(F)(F)F)c1)OCc1ccc(F)c(Oc2ccccc2)c1
// result 0.0012%

// query Same question for CC(C)C(=Nc1cccc(F)c1)OCc1cccc(Oc2ccc(F)cc2)c1 please.
// result 0.00075%

// query # repeat for CC(C)C(=Nc1ccc2c(c1)OC(F)(F)O2)OCc1cccc(Oc2ccccc2)n1
// result 0.0007%

// query Follow-up entry: CC(C)C(=Nc1ccc(F)c(Br)c1)OCc1ccc(F)c(Oc2ccccc2)c1
// result 0.0005%

// query How about this compound: COc1cccc(N=C(OCc2cccc(Oc3ccc(F)cc3)c2)C(C)C)c1
// result 0.004%

----------
# Tested on: Cabbage Looper [Trichoplusia ni (Hubner)]
# ASSAY_NAME: Cabbage looper insecticidal test
# Assay type: in vivo
# APPLIED_CONDITIONS: second-instar larvae, percent in solution; 3-5 days
Decision: LC50, CL beneath 0.0008% gives MET; LC50, CL meeting or exceeding 0.0008% gives NOT MET.

CC(C)C(=Nc1ccc(Cl)cc1)OCc1coc(Cc2ccccc2)c1; NOT MET
Fc1ccc(N=C(OCc2cccc(Oc3ccccc3)c2)C(F)F)cc1; NOT MET
CC(C)C(=Nc1ccc(F)c(Br)c1)OCc1cccc(Oc2ccccc2)n1; MET
CC(C)C(=Nc1ccc(C(C)(C)C)cc1)OCc1ccc(F)c(Oc2ccc(Cl)cc2)c1; NOT MET
CC(C)C(=Nc1cccc(C(F)(F)F)c1)OCc1ccc(OCc2ccccc2)cc1; NOT MET

// query Confirm or reject: LC50, CL of CCC(CC)C(=Nc1cccc(C(F)(F)F)c1)OCc1cccc(Oc2ccc(F)cc2)c1 lies strictly below 0.0008%
// result NOT MET

// query Try this compound next: CC(C)C(=Nc1cccc(OC(F)(F)F)c1)OCc1ccc(F)c(Oc2ccc(Cl)cc2)c1
// result MET

// query Field entry: CC(C)C(=Nc1ccc(C(F)(F)F)c(Br)c1)OCc1ccc(F)c(Oc2ccc(Cl)cc2)c1 [Compound 377]
// result MET

// query Next compound: CC(C)C(=Nc1ccc(F)c(Cl)c1)OCc1cccc(Oc2ccc(F)cc2F)c1
// result MET

// query CC(C)C(=Nc1ccc(Cl)c(Cl)c1)OCc1cccc(Oc2ccc(F)c(F)c2)c1 ?
// result MET

// query Moving on to CC(C)C(=Nc1ccc(F)c(Cl)c1)OCc1ccc(F)c(Oc2ccc(F)cc2)c1
// result MET

----------
# Tested on: Cabbage Looper [Trichoplusia ni (Hubner)]
# ASSAY_NAME: Cabbage looper insecticidal test
# Type: in vivo
# APPLIED_CONDITIONS: second-instar larvae, percent in solution; 3-5 days
# note: boundary value 0.004% maps to Not met; LC50, CL below it maps to Met

CC(C)C(=Nc1ccc(OCC(F)(F)F)c(F)c1)OCc1cccc(Oc2ccc(Cl)cc2)c1 [Compound 429]; Met

// query Please determine if CC(C)C(=Nc1ccc2c(c1)OCO2)OCc1ccc(F)c(Oc2ccc(Cl)cc2)c1 [Compound 366] is below 0.004% in terms of LC50, CL.
// result Met

// query What do you have for Cc1ccc(Oc2cccc(COC(=Nc3cccc(C(F)(F)F)c3)C(C)C)n2)cc1 [Compound 495] ?
// result Not met

// query What do you get for CC(C)C(=Nc1ccc(-c2ccccc2)cc1)OCc1cccc(Oc2ccccc2)c1 [Compound 186] ?
// result Not met

// query Would you kindly repeat that for CC(C)C(=Nc1ccc(F)c(Cl)c1F)OCc1cccc(Oc2ccc(F)cc2)c1 [Compound 352] ?
// result Met

// query How about this compound: C=C(C)C(=Nc1ccc(C(F)(F)F)cc1)OCc1cccc(Oc2ccccc2)c1 [Compound 430]
// result Met

// query What would you report for CC(C)C(=Nc1c(Br)cc(F)cc1Br)OCc1cccc(Oc2ccccc2)c1 [Compound 130] ?
// result Not met

// query Proceed to Cc1cc(N=C(OCc2ccc(F)c(Oc3ccc(F)cc3)c2)C(C)C)ccc1F [Compound 396]
// result Met

----------
# System: Cabbage Looper [Trichoplusia ni (Hubner)]
# ASSAY_NAME: Cabbage looper insecticidal test
# Format: in vivo
# APPLIED_CONDITIONS: second-instar larvae, percent in solution; 3-5 days
REPORTED_ENDPOINT: LC50, CL (%)
Numeric only. Scale: %

Answered cases to consult:
CC(C)C(=Nc1ccc(F)c(Cl)c1)OCc1ccc(F)c(Br)c1; 0.025
CC(C)(C)C(=Nc1ccc(Br)cc1)OCc1cccc(Oc2ccccc2)c1; 0.004
CC(C)c1ccc(N=C(OCc2cccc(Oc3ccccc3)c2)C2CCC2)cc1; 0.017
CC(C)C(=Nc1cccc(F)c1)OCc1cccc(Oc2ccccc2)c1; 0.002
CC(C)C(=Nc1ccc(F)c(Cl)c1)OCc1cccc(OCc2ccc(F)cc2)c1; 0.0045
CC(C)C(=Nc1ccc(F)c(Cl)c1)OCc1cccc(OCc2ccccc2)c1; 0.0025

// query What is its LC50, CL for Cabbage Looper [Trichoplusia ni (Hubner)]? Entry: CC1CC1C(=Nc1ccc(Cl)cc1)OCc1cccc(Oc2ccccc2)c1 (stereo not drawn)
// result 0.025

// query Field entry: CC(C)C(=Nc1ccc(Br)c(F)c1)OCc1cccc(Oc2ccc(Cl)cc2)n1
// result 0.00075

----------
# Test system: Cabbage Looper [Trichoplusia ni (Hubner)]
# ASSAY_NAME: Cabbage looper insecticidal test
# Format: in vivo
# APPLIED_CONDITIONS: second-instar larvae, percent in solution; 3-5 days
Under this convention, TRUE denotes LC50, CL strictly below 0.004% and FALSE denotes LC50, CL at or above 0.004%.

CC(C)C(=Nc1ccc2c(c1)OC(C)(C)O2)OCc1cccc(Oc2ccc(Cl)cc2)n1; FALSE

// query Hi there! Is LC50, CL for c1ccc(Oc2cccc(COC(=Nc3ccc4c(c3)OCO4)C3CC3)c2)cc1 below 0.004%, do you know?
// result TRUE

// query For CC(C)c1ccc(N=C(OCc2cccc(Oc3ccc(F)cc3)c2)C(C)(C)C)cc1 then?
// result FALSE

// query Another compound to check: COc1ccc(OC)c(N=C(OCc2cccc(Oc3ccccc3)c2)C(C)C)c1
// result FALSE

// query Then what about the compound CC(C)C(=Nc1ccc(F)c([N+](=O)[O-])c1)OCc1cccc(Oc2ccccc2)c1 ?
// result FALSE

----------
Parameter LC50, CL: see the listing below.
# Tested on: Cabbage Looper [Trichoplusia ni (Hubner)]
# ASSAY_NAME: Cabbage looper insecticidal test
# Format: in vivo
# APPLIED_CONDITIONS: second-instar larvae, percent in solution; 3-5 days
Dear colleague, please return just the value in %, with no unit written.

// solved cases for LC50, CL follow
CC(C)C(=Nc1ccc(S(C)(=O)=O)cc1)OCc1ccc(F)c(Oc2ccc(F)cc2)c1; 0.0024
CC(C)C(=Nc1ccc(F)c(Cl)c1)OCc1cccc(Oc2cc(F)cc(F)c2)c1; 0.00075
CC(C)C(=Nc1cccc(C#N)c1)OCc1cccc(Oc2ccccc2)c1; 0.08
CC(C)C(=Nc1cccc(C(C)(C)C)c1)OCc1cccc(Oc2ccc(F)cc2)c1; 0.0045
CC(C)C(=Nc1ccc(F)c(F)c1)OCc1cccc(Oc2ccc(Br)cc2)c1; 0.00012
CCCCC(=Nc1ccc(F)c(Cl)c1)OCc1cccc(Oc2ccccc2)c1; 0.1

// query Field: LC50, CL (Cabbage Looper [Trichoplusia ni (Hubner)]). Entry: CC(C)C(=Nc1ccc(OCC(F)(F)F)c(Cl)c1)OCc1cccc(Oc2ccc(F)cc2)c1
// result 0.00075

// query Also CCC(=Nc1ccc(F)c(Cl)c1)OCc1cccc(Oc2ccccc2)c1 , if possible.
// result 0.004

// query Can you check CC(C)C(=Nc1c(F)cc(F)cc1Br)OCc1cccc(Oc2ccccc2)c1 next?
// result 0.005

// query One more compound: COc1cc(N=C(OCc2cccc(Oc3ccccc3)c2)C(C)C)c(OC)cc1Cl
// result 0.016

// query Would you kindly repeat that for CC(C)(C)C(=Nc1ccc(Cl)cc1)OCc1cccc(Oc2ccccc2)c1 ?
// result 0.003

// query Another: CC(C)C(=Nc1ccc(Cl)cc1)OCc1cccc(Oc2ccc(Cl)cc2)n1
// result 0.00075

// query # iterate: CC(C)C(=Nc1c(F)c(F)cc(F)c1F)OCc1cccc(Oc2ccccc2)c1
// result 0.004

----------
# System: Cabbage Looper [Trichoplusia ni (Hubner)]
# ASSAY_NAME: Cabbage looper insecticidal test
# Assay type: in vivo
# APPLIED_CONDITIONS: second-instar larvae, percent in solution; 3-5 days
REPORTED_ENDPOINT: LC50, CL (%)
Record the value in %, omitting the unit from your answer.

Worked cases, answers included:
Cc1ccc(F)cc1N=C(OCc1cccc(Oc2ccccc2)c1)C(C)C; 0.005
CC(C)C(=Nc1ccc(Cl)c(Cl)c1)OCc1cccc(Oc2ccccc2)c1 [Compound 9]; 0.001
CC(C)C(=Nc1ccc(F)c(Cl)c1)OCc1cccc(Oc2ccc(Cl)cc2)n1; 0.00009
CC(C)C(=Nc1ccc(F)c(Cl)c1F)OCc1cccc(Oc2ccccc2)c1; 0.00045
CC(C)C(=Nc1ccc(Cl)c(C(F)(F)F)c1)OCc1ccc(F)c(Oc2ccc(F)cc2)c1; 0.00037

// query Given Fc1ccc(N=C(OCc2cccc(Oc3ccccc3)c2)C(F)(F)C(F)(F)F)cc1Cl , state its recorded LC50, CL.
// result 0.006

// query Then what about the molecule CC(C)C(=Nc1ccc(F)c(Cl)c1)OCc1cccc(Oc2ccc(F)cc2)n1 ?
// result 0.00008
